Data provenance is ChEMBL document CHEMBL4265931.

Target under test: Acetylcholinesterase (Electrophorus electricus)
Sequence (O42275 whole entry): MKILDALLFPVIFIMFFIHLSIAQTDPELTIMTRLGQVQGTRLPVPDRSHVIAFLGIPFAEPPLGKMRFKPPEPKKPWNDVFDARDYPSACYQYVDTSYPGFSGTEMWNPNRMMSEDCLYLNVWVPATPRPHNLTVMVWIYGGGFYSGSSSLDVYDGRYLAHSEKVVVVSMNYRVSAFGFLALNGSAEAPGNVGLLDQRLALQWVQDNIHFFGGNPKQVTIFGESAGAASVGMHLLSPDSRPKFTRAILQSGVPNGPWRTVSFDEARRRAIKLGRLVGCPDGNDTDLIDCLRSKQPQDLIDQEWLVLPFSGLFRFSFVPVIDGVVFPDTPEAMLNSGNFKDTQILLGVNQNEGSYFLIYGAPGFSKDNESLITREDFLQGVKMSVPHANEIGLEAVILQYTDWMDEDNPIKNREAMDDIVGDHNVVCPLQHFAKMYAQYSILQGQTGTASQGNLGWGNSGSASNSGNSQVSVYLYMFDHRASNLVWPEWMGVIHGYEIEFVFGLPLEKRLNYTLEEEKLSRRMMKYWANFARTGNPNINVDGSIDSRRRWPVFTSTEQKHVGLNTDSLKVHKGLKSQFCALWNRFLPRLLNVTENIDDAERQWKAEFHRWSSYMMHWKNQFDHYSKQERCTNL
Test description: Inhibition of electric eel AChE using acetylthiocholine iodide as substrate preincubated for 5 mins followed by substrate addition and measured after 2 mins by Ellman's method
I'd be grateful if you could share measured IC50 for these entries.
Reply with the number and its unit after it.

# lookup: IC50 of "O=C(CCCN1CCC(Cc2ccccc2)CC1)c1ccc(-c2ccccc2)cc1"
13.9 µM

# lookup: IC50 of "COc1ccc(C(=O)CCN2CCC(Cc3ccccc3)CC2)cc1.Cl"
22 µM

# lookup: IC50 of "Cl.O=C(CCN1CCCCC1)c1ccc(-c2ccccc2)cc1"
13.1 µM

# lookup: IC50 of "COc1ccc2cc(C(=O)CCCN3CCC(Cc4ccccc4)CC3)ccc2c1"
4.28 µM

# lookup: IC50 of "COc1cccc(C(=O)CN2CCC(Cc3ccccc3)CC2)c1"
32.8 µM

# lookup: IC50 of "COc1ccc(C(=O)CCCN2CCC(Cc3ccccc3)CC2)cc1.Cl"
12.8 µM

---

Test description: in vitro
Experimental conditions: human, SH-SY5Y cells
Description: Cytotoxicity against human SH-SY5Y cells assessed as cell viability at 10 uM after 24 hrs by MTS assay relative to control
I'd be grateful if you could share measured viability at 24 h, 10 µM for these entries.
Respond numerically; units are % and should not be typed.

# lookup: viability at 24 h, 10 µM of "COc1ccc(C(=O)CCN2CCCCC2)cc1.Cl"
119

# lookup: viability at 24 h, 10 µM of "Cl.O=C(CN1CCC(Cc2ccccc2)CC1)c1ccc2ccccc2c1"
107

# lookup: viability at 24 h, 10 µM of "Cl.O=C(CCN1CCCCC1)c1ccc(-c2ccccc2)cc1"
104

# lookup: viability at 24 h, 10 µM of "COc1ccc(C(=O)CN2CCC(Cc3ccccc3)CC2)cc1.Cl"
103

# lookup: viability at 24 h, 10 µM of "Cl.O=C(CCN1CCC(Cc2ccccc2)CC1)c1ccccc1"
93

# lookup: viability at 24 h, 10 µM of "Cl.O=C(CCCN1CCC(Cc2ccccc2)CC1)c1ccccc1"
100

# lookup: viability at 24 h, 10 µM of "Cl.O=C(CCN1CCOCC1)c1ccc(-c2ccccc2)cc1"
100

# lookup: viability at 24 h, 10 µM of "COc1ccc(C(=O)CCN2CCC(Cc3ccccc3)CC2)cc1.Cl"
99.9

# lookup: viability at 24 h, 10 µM of "COc1cccc(C(=O)CCCN2CCC(Cc3ccccc3)CC2)c1.Cl"
100

# lookup: viability at 24 h, 10 µM of "Cl.O=C(CCN1CCCCC1)c1ccc2ccccc2c1"
98.6

# lookup: viability at 24 h, 10 µM of "C[C@H](CCN1CCCCC1)c1ccc(-c2ccccc2)cc1"
100

# lookup: viability at 24 h, 10 µM of "Cl.O=C(CCCN1CCC(Cc2ccccc2)CC1)c1ccc2ccccc2c1"
80.2

# lookup: viability at 24 h, 10 µM of "Cl.O=C(CCN1CCOCC1)c1ccc2ccccc2c1"
77

# lookup: viability at 24 h, 10 µM of "COc1cc(/C=C/C(=O)CC(=O)/C=C/c2ccc(O)c(OC)c2)ccc1O"
100

# lookup: viability at 24 h, 10 µM of "COc1ccc(C(=O)CCCN2CCC(Cc3ccccc3)CC2)cc1.Cl"
100

---

I'd be grateful if you could share measured IC50 for these entries.
Respond numerically; units are µM and should not be typed.

Value wanted: IC50 (Acetylcholinesterase (Electrophorus electricus, UniProt O42275)) of entry "Cl.O=C(CCCN1CCC(Cc2ccccc2)CC1)c1ccccc1"
13.1

Value wanted: IC50 (Acetylcholinesterase (Electrophorus electricus, UniProt O42275)) of entry "O=C(CCN1CCC(Cc2ccccc2)CC1)c1ccc2ccccc2c1"
18.6

Value wanted: IC50 (Acetylcholinesterase (Electrophorus electricus, UniProt O42275)) of entry "Cl.O=C(CN1CCC(Cc2ccccc2)CC1)c1ccc2ccccc2c1"
9.13

Value wanted: IC50 (Acetylcholinesterase (Electrophorus electricus, UniProt O42275)) of entry "COc1cccc(C(=O)CCCN2CCC(Cc3ccccc3)CC2)c1.Cl"
7.64
